Target: T1, human CD3e/g (human, UniProt P07766 23-126; P09693 23-116)
T1 construct: Bought soluble protein; also called hCD3e/g; human CD3e/g (Acro CDD-C52W4)
T1 sequence (P07766 23-126, chain 1 of 2): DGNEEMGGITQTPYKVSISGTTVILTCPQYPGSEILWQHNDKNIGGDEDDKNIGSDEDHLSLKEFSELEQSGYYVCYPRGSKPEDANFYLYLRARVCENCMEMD
T1 sequence (P09693 23-116, chain 2 of 2): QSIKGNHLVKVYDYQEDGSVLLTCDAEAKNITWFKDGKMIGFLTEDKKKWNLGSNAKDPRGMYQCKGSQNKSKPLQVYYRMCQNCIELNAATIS
Protocol text: SPR (Carterra LSA), mAb on chip
Form field: Kd (one value per entry).
Readout type: Kd (nM)

| Binder | Value reported |
| --- | --- |
| mAb 198 (antibody, V domains shown, VH and VL only) VH: QVQLVESGGGVVQPGGSLRLSCAASGFTFSGYGMHWVRQAPGKGLEWVAIIWYNGRKTYYAESVKGRFTISRDNSKNTLSLQMNSLRIEDTAVYYCTTGQGYNWFDPWGQGTLVTVSS VL: EIVMTQSPATLSVSPGERATLSCRASQSVSSNLAWYQQKPGQAPRLLIYGASTRATGIPARFSGSGSGTEFTLTISSLQSEDFAVYYCQQFNAWPLTFGGGTKMEIK | 30 |
| mAb 197 (antibody, V domains shown, VH and VL only) VH: QVQLVESGGGVVQPGGSLRLSCAASGFTFSGYGMHWVRQAPGKGLEWVAIIWYNGRKTYYAESVKGRFTISRDNSKNTLSLQMNSLRVEDTAVYYCTTGQGYNWFDPWGQGTLVTVSS VL: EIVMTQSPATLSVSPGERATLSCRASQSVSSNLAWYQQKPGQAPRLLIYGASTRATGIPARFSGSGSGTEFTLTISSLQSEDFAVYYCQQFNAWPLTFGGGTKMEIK | 17 |
| mAb 214 (antibody, V domains shown, VH and VL only) VH: EVQLLESGGGLVQPGGSLRLSCAASGFTFSNYAMNWVRQAPGKGLEWVSAISGSRSNTYYADSVKGRFTISRDNSKNTLYLQMNSLRAEDTAVYYCAKGAYSKYPYYYYMDVWGKGTTVTVSS VL: EIVMTQSPATLSLSPGERATLSCRASQSVSSSYLSWYQQKPGQAPRLLIYGASTRAIGIPARFSGSGSGTDFTLTISSLQAEDFAVYYCQQDDNLPWTFGQGTKVEIK | 25 |
